Measured values drawn from patent US20240116985A1 for this set.

target_desc: full-length beta-Catenin (Uniprot ID P35222) (Homo sapiens (Human)) (UniProt P35222)
Sequence (P35222 whole entry): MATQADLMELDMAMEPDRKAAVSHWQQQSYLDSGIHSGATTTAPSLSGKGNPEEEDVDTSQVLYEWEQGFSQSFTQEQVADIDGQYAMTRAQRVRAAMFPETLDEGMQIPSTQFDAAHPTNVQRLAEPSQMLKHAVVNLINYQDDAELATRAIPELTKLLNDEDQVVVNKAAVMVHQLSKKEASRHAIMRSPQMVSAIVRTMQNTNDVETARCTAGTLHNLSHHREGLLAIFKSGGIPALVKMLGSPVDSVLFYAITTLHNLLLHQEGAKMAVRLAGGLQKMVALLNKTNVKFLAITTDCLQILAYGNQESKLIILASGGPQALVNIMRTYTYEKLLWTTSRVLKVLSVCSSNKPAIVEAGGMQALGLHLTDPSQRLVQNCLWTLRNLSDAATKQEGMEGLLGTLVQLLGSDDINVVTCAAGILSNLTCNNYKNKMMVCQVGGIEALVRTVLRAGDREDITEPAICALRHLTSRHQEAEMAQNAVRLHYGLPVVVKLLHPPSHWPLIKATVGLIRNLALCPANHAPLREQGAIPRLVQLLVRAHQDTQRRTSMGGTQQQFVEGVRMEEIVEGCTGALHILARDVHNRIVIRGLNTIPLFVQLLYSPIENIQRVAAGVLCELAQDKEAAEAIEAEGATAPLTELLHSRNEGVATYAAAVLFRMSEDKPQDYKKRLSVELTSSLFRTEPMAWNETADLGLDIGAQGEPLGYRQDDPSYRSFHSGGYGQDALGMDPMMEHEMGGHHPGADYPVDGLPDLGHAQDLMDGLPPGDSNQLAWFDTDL
measurement_protocol: fluorescence polarization competition against 5FAM-TCF4(10-53), full-length beta-catenin
Starred links: 1 amine or outer side, 2 acyl side, 3 side chain; linkers in the order of their positions; H or OH if unused. Positions of bridges follow the written chain, without caps; N, C: chain ends. Non-standard residues stand in square brackets, D forms with d. Primed or numbered codes have the meaning given here. *: point of attachment. PyrS2″ = (S)-3-amino-1-((pent-4-en-1-yloxy)carbonyl)pyrrolidine-3-carboxylic acid (stapling residue), C=CCCCOC(=O)N1CC[C@@](N[*:1])(C(=O)[*:2])C1; B5(4) = 2,2-bis(4-pentenyl)glycine = 2-amino-2-(pent-4-en-1-yl)hept-6-enoic acid (stitching residue), C=CCCCC(CCCC=C)(N[*:1])C(=O)[*:2]; PyrS2 = (S)-3-amino-1-((pent-4-en-1-yloxy)carbonyl)pyrrolidine-3-carboxylic acid, C=CCCCOC(=O)N1CC[C@@](N[*:1])(C(=O)[*:2])C1; (Me2diaminobutane)GlnR = N5-methyl-N5-(4-(methylamino)butyl)-L-glutamine, CN(CCCCN(C)[*:3])C(=O)CC[C@H](N[*:1])C(=O)[*:2]; 5IndA = (S)-2-amino-3-(2,3-dihydro-1H-inden-5-yl)propanoic acid, O=C([C@H](Cc1ccc2c(c1)CCC2)N[*:1])[*:2]; (NMe2)GlnR″ = [NMe2]GlnR: N5,N5-dimethyl-L-glutamine, CN(C)C(=O)CC[C@H](N[*:1])C(=O)[*:2]; (NMe2)GlnR = N5,N5-dimethyl-L-glutamine, CN(C)C(=O)CC[C@H](N[*:1])C(=O)[*:2]; Phe(3-COOH) = N[C@@H](Cc1cccc(C(=O)O)c1)C(=O)O; Phe(3-Br) = N[C@@H](Cc1cccc(Br)c1)C(=O)O; Phe(2-Cl) = N[C@@H](Cc1ccccc1Cl)C(=O)O; 2Nal = N[C@@H](Cc1ccc2ccccc2c1)C(=O)O; Bta = N[C@@H](Cc1csc2ccccc12)C(=O)O; αAllylPro = C=CC[C@@]1(C(=O)O)CCCN1; tBuAla = CC(C)(C)C[C@H](N)C(=O)O; 3Thi = N[C@@H](Cc1ccsc1)C(=O)O; Butoxycarbonyl = CCCCOC(=O)*; 2F3MeF″ = Phe derivative
recorded_metric: IC50 (nM)

Some binders with known IC50 results, for comparison:
Ac-[αAllylPro]D[tBuAla][B5(4)]D[Phe(3-COOH)]QAFV[PyrS2][3Thi][5IndA]A-NH2 (staple 1-4, 4-11) [I-2296]: 6
Ac-[αAllylPro]D[tBuAla][B5(4)]D[Phe(3-COOH)][(NMe2)GlnR]AFV[PyrS2″][3Thi][Bta]A-NH2 (staple 1-4, 4-11) [I-2303]: 5
Ac-[αAllylPro]D[tBuAla][B5(4)]D[Phe(3-COOH)][(Me2diaminobutane)GlnR]AFV[PyrS2″][3Thi][Bta]A-NH2 (staple 1-4, 4-11) [I-2301]: 5
Ac-[αAllylPro]D[tBuAla][B5(4)]D[Phe(3-COOH)][(NHEt)GlnR]AFV[PyrS2″][3Thi][Bta]A-NH2 (staple 1-4, 4-11) [I-2302]: 5

P. Ac-[αAllylPro]D[tBuAla][B5(4)]D[Phe(3-COOH)][(NHEt)GlnR]AFL[PyrS2″][2F3MeF″][Bta][(NHEt)GlnR]-NH2 (staple 1-4, 4-11) [I-2299]
Q. Ac-[αAllylPro]D[tBuAla][B5(4)]D[Phe(3-COOH)]QAFV[PyrS2″][3Thi][2Nal]A-NH2 (staple 1-4, 4-11) [I-2310]
Ask | Pick one: P or Q . Which one has the lower reported IC50? Label of pick, please.
Reply | P

P. Ac-[αAllylPro]D[tBuAla][B5(4)]D[Phe(3-COOH)][(NMe2)GlnR″]AFL[PyrS2″][2F3MeF″][Bta][(NMe2)GlnR″]-NH2 (staple 1-4, 4-11) [I-2300]
Q. Ac-[αAllylPro]D[tBuAla][B5(4)]D[Phe(3-COOH)]AAFL[PyrS2″][3Thi][Phe(3-Br)]Q-NH2 (staple 1-4, 4-11) [I-2307]
R. Butoxycarbonyl-[αAllylPro]D[tBuAla][B5(4)]D[Phe(3-COOH)]AAFL[PyrS2″][Phe(2-Cl)][Bta]A-NH2 (staple 1-4, 4-11) [I-2304]
Ask | List from greatest to least IC50. Your answer should be the labels, listed in the requested order.
Reply | R, Q, P
